# Target Of Assay: Tubulin (Sus scrofa, UniProt P02554+P02550)
# Test Description: Tested for the inhibition of polymerization rate of tubulin microtubule assembly.
# Type: functional
Result Type: I50 (µM)
Kindly provide the numeric value in µM only, without the unit symbol.

Task: Suppose we examine the compound COc1cc2c(c(OC)c1OC)-c1cc3c(cc1C(=O)[C@@H]1COC(=O)[C@H]1C2)OCO3 (stereo in doubt; 13) ; what I50 value has been reported?
Result: 375

Task: Suppose we examine the compound COc1cc2c(c(OC)c1OC)-c1cc3c(cc1C(=O)[C@@H]1COC(=O)[C@H]1C2)OCO3 (stereo in doubt; 5) ; what I50 value has been reported?
Result: 125

Task: Suppose we examine the compound COc1cc([C@@H]2c3cc4c(cc3CC3COC(=O)[C@@H]32)OCO4)cc(OC)c1OC (mixture of isomers) ; what I50 value has been reported?
Result: 2.1

Task: Suppose we examine the compound COc1cc2c(c(OC)c1OC)-c1cc3c(cc1C[C@@H]1COC(=O)[C@H]1C2)OCO3 ; what I50 value has been reported?
Result: 60

Task: Suppose we examine the compound COc1cc2c(c(OC)c1OC)-c1cc3c(cc1C(=O)[C@@H]1COC(=O)[C@H]1C2)OCO3 (stereo in doubt; 17) ; what I50 value has been reported?
Result: 162

Task: Suppose we examine the compound COc1cc2c(c(OC)c1OC)-c1cc3c(cc1C(=O)[C@@H]1COC(=O)[C@H]1C2)OCO3 (stereo in doubt; 12) ; what I50 value has been reported?
Result: 450

Task: Suppose we examine the compound COc1cc2c(c(OC)c1OC)-c1cc3c(cc1C(=O)[C@@H]1COC(=O)[C@H]1C2)OCO3 (stereo in doubt; 9) ; what I50 value has been reported?
Result: 110

Task: Suppose we examine the compound COc1cc2c(c(OC)c1OC)-c1cc3c(cc1C[C@@H]1COC(=O)[C@@H]1C2)OCO3 ; what I50 value has been reported?
Result: 5

Task: Suppose we examine the compound COc1cc2c(c(OC)c1OC)-c1cc3c(cc1[C@@H](OC(C)=O)C1COC(=O)[C@H]1C2)OCO3 (some centres undefined) [STEGANACIN] ; what I50 value has been reported?
Result: 3.5

====

# Target Of Assay: Tubulin (Sus scrofa, UniProt P02554+P02550)
# Test Description: Binding affinity against tubulin using [3H]colchicine as radioligand
# Assay type: protein assay
Each entry below lists one item and its recorded Ki value.
Kindly provide the numeric value in µM only, without the unit symbol.

Some compounds with known Ki results, for comparison:
{"Compound": "COc1cc2c(c(OC)c1OC)-c1cc3c(cc1C[C@@H]1COC(=O)[C@@H]1C2)OCO3", "Target Of Assay": "Tubulin (Sus scrofa, UniProt P02554+P02550)", "Result Type": "Ki", "Observed Result": 32}
{"Compound": "COc1cc2c(c(OC)c1OC)-c1cc3c(cc1[C@@H](OC(C)=O)C1COC(=O)[C@H]1C2)OCO3 (stereo partly specified) [STEGANACIN]", "Target Of Assay": "Tubulin (Sus scrofa, UniProt P02554+P02550)", "Result Type": "Ki", "Observed Result": 10.5}

Task: Suppose we examine the compound COc1cc2c(c(OC)c1OC)-c1cc3c(cc1C[C@@H]1COC(=O)[C@H]1C2)OCO3 ; what Ki value has been reported?
Result: 100

Task: Suppose we examine the compound COc1cc([C@@H]2c3cc4c(cc3CC3COC(=O)[C@@H]32)OCO4)cc(OC)c1OC (mixture of isomers) ; what Ki value has been reported?
Result: 201

Task: Suppose we examine the compound COc1cc(CC2CCOC2=O)c(-c2cc3c(cc2CO)OCO3)c(OC)c1OC (stereo unspecified) ; what Ki value has been reported?
Result: 185

Task: Suppose we examine the compound COc1cc2c(c(OC)c1OC)-c1cc3c(cc1C(=O)[C@@H]1COC(=O)[C@H]1C2)OCO3 (stereo in doubt; 5) ; what Ki value has been reported?
Result: 178
